B1: Flag-CNK^2–549 [Drosophila] / V5-KSR [Drosophila] (parent)
chain 1: MSSNNNAPASAPDTGSTNANDPISGSLSVDSNLVIIQDMIDLSANHLEGLRTQCAISSTLTQQEIRCLESKLVRYFSELLLAKMRLNERIPANGLVPHTTGNELRQWLRVVGLSQGTLTACLARLTTLEQSLRLSDEEIRQLLADSPSQREEEELRRLTRAMQNLRKCMESLESGTAASNNDPEQWHWDSWDRPTHIHRGSVGNIGLGNNSTASPRTHHRQHGVKGKNSALANSTNFKSGRQSPSATEELNSTQGSQLTLTLTPSPPNSPFTPSSGLSSSLNGTPQRSRGTPPPARKHQTLLSQSHVQVDGEQLARNRLPTDPSPDSHSSTSSDIFVDPNTNASSGGSSSNVLMVPCSPGVGHVGMGHAIKHRFTKALGFMATCTLCQKQVFHRWMKCTDCKYICHKSCAPHVPPSCGLPREYVDEFRHIKEQGGYASLPHVHGAAKGSPLVKKSTLGKPLHQQHGDSSSPSSSCTSSTPSSPALFQQRERELDQAGSSSSANLLPTPSLGKHQPSQFNFPNVTVTSSGGSGGVSLISNEPVPEQFPTAPATANGGLDSLVSSSNGHMSSLIGSQTSNASTAATLTGSLVNSTTTTSTCSFFPRKLSTAGVDKRTPFTSEYTDTHKSNDSDKTVSLSGSASTDSDRTPVRVDSTEDGDSGQWRQNSISLKEWDIPYGDLLLLERIGQGRFGTVHRALWHGDVAVKLLNEDYLQDEHMLETFRSEVANFKNTRHENLVLFMGACMNPPYLAIVTSLCKGNTLYTYIHQRREKFAMNRTLLIAQQIAQGMGYLHAREIIHKDLRTKNIFIENGKVIITDFGLFSSTKLLYCDMGLGVPHNWLCYLAPELIRALQPEKPRGECLEFTPYSDVYSFGTVWYELICGEFTFKDQPAESIIWQVGRGMKQSLANLQSGRDVKDLLMLCWTYEKEHRPQFARLLSLLEHLPKKRLARSPSHPVNLSRSAESVF
chain 2: AYINIAEWTPDQVTDWIKGLDESMKGYLYEFSKQEIGGRALLNIRPYELENLGMLRIGHQEIVLEAVENLRNFHYHLKNDNLQFMALHVATAAKNLHRELARNHAESTKIDTRILHDITRTIATLKPLVGSLERTPFRKQEMYREYCGNVLKCGLELATIAHRDRFALQPVPAIRQSAERLENLANFVIQDISDPMVLQPASLNLVTLKKRESELGFNIESSYNGIHRVTDIKYNSPAHNSGKIEDGDEIVQINYQTVVGWQHRTVLEHLREALPDVVLTVKKRPKHTKMFGQIYMQPYRLPSKKRNMAARWAAQMPSPRAAFLTLDTEQLATGGTGSAVPDPSKSLSSEKREVLTKANPVSSASDSDSSCSDIPTPTDPKLAAREIRLYYPKPRALLQRRNTICGCEYLSLKNSDLVVPSWHERKPGIGSPTNCDPGSPSIRDKSISFGYGLEMAARPTTCIGIAGDTSTDKARRMFHEARKLKQLTEDSQREFLVDRYKPGVSKVVRFDAKEDYVMKNEKFICNVENTILETFEPIPFADEGDEDA

variants of: B1; experiment: GST pull-down, immunoblot quantification; conditions: with V5-KSR [Drosophila], S2 cells, GST-HYP, Myc-MEK co-expressed, captured via GST-HYP, anti-V5 (KSR) blot, parent: 1
experimental.endpoint: ratio to parent
One number for each entry.

// worked examples, ratio to parent included
>>> df
   mutation_annotation  recorded_value
0        chain 2 Q199A            0.82
1        chain 2 S193A            0.98
2        chain 2 M196E            0.49
3  chain 2 D194K V197E            0.05

Batch request: ratio to parent per item, same order as input.
1. chain 2 V197E
2. chain 2 D194K

[A]
1. 0.07
2. 0.08

These data points were gathered from paper PMC11257983.
